Tested on: V79
Assay: Clonogenic survival ratio of 3% V79 NTRpuro cells to 97% V79 NTRoua cells in co-culture
Assay type: functional, Cricetulus griseus
readout: Ratio
Answer with a number only.

Give the measured Ratio of CS(=O)(=O)OCCN(CCCl)c1cc(C(N)=O)c([N+](=O)[O-])cc1[N+](=O)[O-] . 0.16

Now the compound CS(=O)(=O)OCCN(CCI)c1cc(C(N)=O)c([N+](=O)[O-])cc1[N+](=O)[O-] 0.35

Now the compound CS(=O)(=O)OCCN(CCBr)c1cc(C(N)=O)c([N+](=O)[O-])cc1[N+](=O)[O-] 0.2

Now the compound NC(=O)c1cc(N2CC2)c([N+](=O)[O-])cc1[N+](=O)[O-] 0.14

---

System: WiDr
Assay: Antiproliferative activity against human WiDr NTRneo cells after 18 hrs
Assay type: functional, cell-based
Exercise: for every item that follows, state its recorded pIC50.
Recall that pIC50 is obtained by taking minus log10 of the concentration measured in molar.

Give the measured pIC50 of O=C(NCC(O)CO)c1cc(N(CCCl)CCCl)c([N+](=O)[O-])cc1[N+](=O)[O-] (stereo not drawn) . 4.85

Now the compound O=C(O)CCNC(=O)c1cc(N(CCBr)CCBr)c([N+](=O)[O-])cc1[N+](=O)[O-] 5.12

Now the compound O=C(O)CCNC(=O)c1cc(N(CCCl)CCCl)c([N+](=O)[O-])cc1[N+](=O)[O-] 2.74

Now the compound NC(=O)c1cc(N(CCCl)CCBr)c([N+](=O)[O-])cc1[N+](=O)[O-] 6.16

Now the compound NCCNC(=O)c1cc(N(CCCl)CCCl)c([N+](=O)[O-])cc1[N+](=O)[O-] 5.23

Now the compound CS(=O)(=O)c1cc([N+](=O)[O-])c(C(N)=O)cc1N(CCBr)CCBr 6.24

Now the compound CS(=O)(=O)OCCN(CCOS(C)(=O)=O)c1cc(C(N)=O)c([N+](=O)[O-])cc1[N+](=O)[O-] 6.17

Now the compound O=C(NCCO)c1cc(N(CCI)CCI)c([N+](=O)[O-])cc1[N+](=O)[O-] 6.05

Now the compound O=C(NCCN1CCOCC1)c1cc(N(CCCl)CCCl)c([N+](=O)[O-])cc1[N+](=O)[O-] 3.83

Now the compound CS(=O)(=O)OCCN(CCBr)c1cc(C(=O)NCCO)c([N+](=O)[O-])cc1[N+](=O)[O-] 6.11

Now the compound CS(=O)(=O)c1cc([N+](=O)[O-])c(C(N)=O)cc1N(CCCl)CCCl 4.59

Now the compound CC(O)CNC(=O)c1cc(N(CCCl)CCCl)c([N+](=O)[O-])cc1[N+](=O)[O-] (stereo not drawn) 4.72

Now the compound O=C(NCCO)c1cc(N(CCBr)CCBr)c([N+](=O)[O-])cc1[N+](=O)[O-] 6.47

Now the compound CS(=O)(=O)NC(=O)c1cc(N(CCCl)CCCl)c([N+](=O)[O-])cc1[N+](=O)[O-] 3.65

Now the compound O=C(NCCCN1CCOCC1)c1cc(N(CCCl)CCCl)c([N+](=O)[O-])cc1[N+](=O)[O-] 4.05

Now the compound O=C(NCCn1ccnc1)c1cc(N(CCCl)CCCl)c([N+](=O)[O-])cc1[N+](=O)[O-] 4.96

Now the compound NC(=O)c1cc(N(CCI)CCI)c([N+](=O)[O-])cc1[N+](=O)[O-] 6.52

Now the compound O=C(NO)c1cc(N(CCBr)CCBr)c([N+](=O)[O-])cc1[N+](=O)[O-] 6.41

Now the compound NC(=O)c1cc(N(CCBr)CCBr)c([N+](=O)[O-])cc1[N+](=O)[O-] 6.66

Now the compound CN(C)CCNC(=O)c1cc(N(CCCl)CCCl)c([N+](=O)[O-])cc1[N+](=O)[O-] 4.18

Now the compound COC(=O)CCNC(=O)c1cc(N(CCBr)CCBr)c([N+](=O)[O-])cc1[N+](=O)[O-] 5.68

Now the compound CS(=O)(=O)OCCN(CCOS(C)(=O)=O)c1cc(C(=O)NCC(O)CO)c([N+](=O)[O-])cc1[N+](=O)[O-] (stereo not drawn) 4.64

Now the compound O=C(NCC(O)CO)c1cc(N(CCBr)CCBr)c([N+](=O)[O-])cc1[N+](=O)[O-] (stereo not drawn) 6.20

Now the compound O=C(NCC(O)CO)c1cc(N(CCI)CCI)c([N+](=O)[O-])cc1[N+](=O)[O-] (stereo not drawn) 6.09

Now the compound O=C(NCCCCN1CCOCC1)c1cc(N(CCCl)CCCl)c([N+](=O)[O-])cc1[N+](=O)[O-] 4.64

Now the compound CS(=O)(=O)OCCN(CCCl)c1cc(C(N)=O)c([N+](=O)[O-])cc1[N+](=O)[O-] 6.15

Now the compound O=C(NCCCO)c1cc(N(CCBr)CCBr)c([N+](=O)[O-])cc1[N+](=O)[O-] 6.60

Now the compound NC(=O)c1cc(N2CC2)c([N+](=O)[O-])cc1[N+](=O)[O-] [TRETAZICAR] 5.94

Now the compound CS(=O)(=O)c1cc([N+](=O)[O-])c(N(CCCl)CCCl)cc1C(=O)NCC(O)CO (stereo not drawn) 3.00

Now the compound O=C(NCCCO)c1cc(N(CCCl)CCCl)c([N+](=O)[O-])cc1[N+](=O)[O-] 5.00

Now the compound CS(=O)(=O)OCCN(CCCl)c1cc(C(=O)NCC(O)CO)c([N+](=O)[O-])cc1[N+](=O)[O-] (stereo not drawn) 5.22

Now the compound CS(=O)(=O)OCCN(CCBr)c1cc(C(=O)NO)c([N+](=O)[O-])cc1[N+](=O)[O-] 5.94

---

Tested on: V79
Experiment: Clonogenic survival of 97% V79 NTRoua cells in co-cultures with 3% V79 NTRpuro cells after 5 hrs by MCL assay
Assay type: functional, Cricetulus griseus
readout: Activity (µM)
Could you give me the number in µM? Just the number is fine.

Give the measured Activity of O=C(NCCN1CCOCC1)c1cc(N(CCCl)CCCl)c([N+](=O)[O-])cc1[N+](=O)[O-] . 3000

Now the molecule NC(=O)c1cc(N(CCOS(N)(=O)=O)CCOS(N)(=O)=O)c([N+](=O)[O-])cc1[N+](=O)[O-] 800

Now the molecule CS(=O)(=O)OCCN(CCBr)c1cc(C(N)=O)c([N+](=O)[O-])cc1[N+](=O)[O-] 10

---

Exercise: for every item that follows, state its recorded logD.
Experiment: Partition coefficient at pH 7.4 by shake-flask method
Assay type: physicochemical
Details: octanol/water
Answer with a number only.

Give the measured logD of O=C(NCCN1CCOCC1)c1cc(N(CCCl)CCCl)c([N+](=O)[O-])cc1[N+](=O)[O-] . 1.6

Now the molecule CS(=O)(=O)OCCN(CCBr)c1cc(C(=O)NCC(O)CO)c([N+](=O)[O-])cc1[N+](=O)[O-] (stereo unspecified) -0.05

Now the molecule CS(=O)(=O)OCCN(CCBr)c1cc(C(N)=O)c([N+](=O)[O-])cc1[N+](=O)[O-] 0.49

Now the molecule O=C(NCCO)c1cc(N(CCBr)CCBr)c([N+](=O)[O-])cc1[N+](=O)[O-] 1.69

Now the molecule CS(=O)(=O)OCCN(CCCl)c1cc(C(N)=O)c([N+](=O)[O-])cc1[N+](=O)[O-] 0.42

Now the molecule NC(=O)c1cc(N2CC2)c([N+](=O)[O-])cc1[N+](=O)[O-] [TRETAZICAR] 0.14

Now the molecule O=C(NCCCO)c1cc(N(CCCl)CCCl)c([N+](=O)[O-])cc1[N+](=O)[O-] 1.49

Now the molecule CS(=O)(=O)OCCN(CCBr)c1cc(C(=O)NCCO)c([N+](=O)[O-])cc1[N+](=O)[O-] 0.46

Now the molecule O=C(NCC(O)CO)c1cc(N(CCBr)CCBr)c([N+](=O)[O-])cc1[N+](=O)[O-] (stereo unspecified) 1.25

Now the molecule CS(=O)(=O)OCCN(CCI)c1cc(C(N)=O)c([N+](=O)[O-])cc1[N+](=O)[O-] 0.74

Now the molecule NC(=O)c1cc(N(CCI)CCI)c([N+](=O)[O-])cc1[N+](=O)[O-] 2.41

Now the molecule O=C(NCCCO)c1cc(N(CCBr)CCBr)c([N+](=O)[O-])cc1[N+](=O)[O-] 1.81

Now the molecule O=C(NCC(O)CO)c1cc(N(CCCl)CCCl)c([N+](=O)[O-])cc1[N+](=O)[O-] (stereo unspecified) 0.93

Now the molecule NC(=O)c1cc(N(CCCl)CCBr)c([N+](=O)[O-])cc1[N+](=O)[O-] 1.61

Now the molecule O=C(NO)c1cc(N(CCCl)CCCl)c([N+](=O)[O-])cc1[N+](=O)[O-] 1.22

Now the molecule O=C(NCCO)c1cc(N(CCCl)CCCl)c([N+](=O)[O-])cc1[N+](=O)[O-] 1.38

Now the molecule NC(=O)c1cc(N(CCBr)CCBr)c([N+](=O)[O-])cc1[N+](=O)[O-] 1.97

Now the molecule O=C(NCC(O)CO)c1cc(N(CCI)CCI)c([N+](=O)[O-])cc1[N+](=O)[O-] (stereo unspecified) 1.79

Now the molecule CS(=O)(=O)OCCN(CCOS(C)(=O)=O)c1cc(C(N)=O)c([N+](=O)[O-])cc1[N+](=O)[O-] -0.7

Now the molecule CS(=O)(=O)c1cc([N+](=O)[O-])c(C(N)=O)cc1N(CCBr)CCBr 1.02

Now the molecule NC(=O)c1cc(N(CCOS(N)(=O)=O)CCOS(N)(=O)=O)c([N+](=O)[O-])cc1[N+](=O)[O-] -0.95
